Test system: NCI-H522
ASSAY COMMENT: relative viability (nuclei count vs DMSO), 5 days (fraction); higher = more cells survive
MEASUREMENT CONDITIONS: first compound 0.05 µM
# reported relative viability; entries follow

COMPOUND	relative viability
CC1(C)CCC(c2ccc(Cl)cc2)=C(CN2CCN(c3ccc(C(=O)NS(=O)(=O)c4ccc(N[C@H](CCN5CCOCC5)CSc5ccccc5)c(S(=O)(=O)C(F)(F)F)c4)cc3)CC2)C1 [Navitoclax] + N=C(N)NC(=N)NCCc1ccccc1 [Phenformin] (partner 250 µM)	0.701
CC1(C)CCC(c2ccc(Cl)cc2)=C(CN2CCN(c3ccc(C(=O)NS(=O)(=O)c4ccc(N[C@H](CCN5CCOCC5)CSc5ccccc5)c(S(=O)(=O)C(F)(F)F)c4)cc3)CC2)C1 [Navitoclax] + CC(=O)Nc1cccc(-n2c(=O)n(C3CC3)c(=O)c3c(Nc4ccc(I)cc4F)n(C)c(=O)c(C)c32)c1 [Trametinib] (partner 0.02 µM)	0.778
CC1(C)CCC(c2ccc(Cl)cc2)=C(CN2CCN(c3ccc(C(=O)NS(=O)(=O)c4ccc(N[C@H](CCN5CCOCC5)CSc5ccccc5)c(S(=O)(=O)C(F)(F)F)c4)cc3)CC2)C1 [Navitoclax] + CC(=O)c1c(C)c2cnc(Nc3ccc(N4CCNCC4)cn3)nc2n(C2CCCC2)c1=O [Palbociclib] (partner 0.5 µM)	1.06
CC1(C)CCC(c2ccc(Cl)cc2)=C(CN2CCN(c3ccc(C(=O)NS(=O)(=O)c4ccc(N[C@H](CCN5CCOCC5)CSc5ccccc5)c(S(=O)(=O)C(F)(F)F)c4)cc3)CC2)C1 [Navitoclax] + NC(=O)Nc1cc(-c2cccc(F)c2)sc1C(=O)N[C@H]1CCCNC1 [AZD7762] (partner 0.2 µM)	1.12
